As shown below, each of these compounds has a reported normalized growth value.
# Procedure Text: chemical genetic growth profiling, strain panel (AID 1159580);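 also: tested at 20 µM; growth read once vehicle control cultures reached saturation at 30 °C; 1 = growth at the plate median or of vehicle wells; lower values mean less growth of the strain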
# Condition Set: S. cerevisiae deletion strains, growth OD, locus YOR184W, strain ser1, active compounds read low
About 2,000 (36%) of roughly 5,500 compounds were called active. Inconclusive results (about 18%) are left out. The list shows a part of the results.

Compound: COc1ccc([C@@H]2CC(=O)c3c(O)cc(O[C@@H]4O[C@H](CO[C@H]5O[C@@H](C)[C@H](O)[C@@H](O)[C@H]5O)[C@@H](O)[C@H](O)[C@H]4O)cc3O2)cc1O
normalized growth: 0.994
//
Compound: CC(=O)OCC(=O)[C@@]1(O)[C@H](C)CC2C3CCC4=CC(=O)C=C[C@]4(C)[C@@]3(F)[C@@H](O)C[C@@]21C (some centres undefined)
normalized growth: 1.01
//
Compound: CC(=O)O[C@H]1CC[C@@]2(C)C(=CC(=O)C3C4CCC(C(C)CCCC(C)C)[C@@]4(C)CCC32)C1 (some centres undefined)
normalized growth: 0.998
//
Compound: CC(C)CCCC(C)[C@H]1CCC2C3C(=O)C=C4C[C@@H](O)CC[C@]4(C)C3CC[C@@]21C (some centres undefined)
normalized growth: 1.06
